Target: T1, recombinant human ASM protein (human, UniProt P17405 47-630)
T1 construct: Recombinant human ASM in solution; also called acid sphingomyelinase (ASM) protein
T1 sequence: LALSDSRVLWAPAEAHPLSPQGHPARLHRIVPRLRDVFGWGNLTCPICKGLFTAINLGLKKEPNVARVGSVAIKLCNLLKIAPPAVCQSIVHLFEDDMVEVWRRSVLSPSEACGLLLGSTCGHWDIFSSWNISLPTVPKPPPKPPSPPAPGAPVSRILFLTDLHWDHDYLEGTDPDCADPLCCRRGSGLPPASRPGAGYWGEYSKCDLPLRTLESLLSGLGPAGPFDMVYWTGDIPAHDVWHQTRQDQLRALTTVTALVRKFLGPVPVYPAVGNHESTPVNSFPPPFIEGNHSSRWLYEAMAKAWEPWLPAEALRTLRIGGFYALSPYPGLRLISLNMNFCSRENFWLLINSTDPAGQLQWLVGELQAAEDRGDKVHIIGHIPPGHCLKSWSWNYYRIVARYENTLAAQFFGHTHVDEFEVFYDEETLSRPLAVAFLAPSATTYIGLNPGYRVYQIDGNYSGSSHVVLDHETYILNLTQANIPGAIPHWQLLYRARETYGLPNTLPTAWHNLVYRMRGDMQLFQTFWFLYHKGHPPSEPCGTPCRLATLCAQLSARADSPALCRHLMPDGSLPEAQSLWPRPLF
Test: BLI (Octet), antibody on AHC sensor
property: Kd (nM)
The reply should contain only the number, in nM.

Observe how each entry below is paired with its result.
[[record]]
binder = "#9104a-B4 (antibody, human IgG4 S228P, lambda, V domains shown, VH of #9104v-H17 with VL of #9104v-L21; full-length IgG, lambda) VH: EVQLLESGGGLVQPGGSLRLSCAASGFTFSNYYMSWVRRAPGKGLEWVSGIYYGSGTPYYAASVKGRFTISRDNSKNTLYLQMNSLRAEDTAVYYCARDTPGFDYWGQGTLVTVSS VL: QSVLTQPPSASGTPGQRVTISCTGSSSNIGNNAVNWYQQLPGTAPKLLIYYDMFRPNGVPDRFSGSKSGTSASLAISGLRSEDEADYYCGAWDYSLSAYVFGGGTKLTVLG"
unit_symbol = "nM"
recorded_number = 0.153

[[record]]
binder = "#9104a-D5 (antibody, human IgG4 S228P, lambda, V domains shown, VH of #9104v-H19 with VL of #9104v-L64; full-length IgG, lambda) VH: EVQLLESGGGLVQPGGSLRLSCAASGFTFSNYYMSWVRQAPGKGLEWVSGIYYGSGVPYYADSVKGRFTISRDNSKNTLYLQMNSLRAEDTAVYYCARDTPGFDYWGQGTLVTVSS VL: QSVLTQPPSASGTPGQRVTISCTGSSSNIGNNAVNWYQQLPGTAPKLLIYYDYFSHSGVPDRFSGSKSGTSASLAISGLRSEDEADYYCGAWDYSLSAYVFGGGTKLTVLG"
unit_symbol = "nM"
recorded_number = 0.13


Lab note: next binder to report on.
Record request: Kd value, item #9104a-A1 (antibody, human IgG4 S228P, lambda, V domains shown, VH of #9104v-H10 with VL of #9104v-L20; full-length IgG, lambda) VH: EVQLLESGGGLVQPGGSLRLSCAASGFTFSNYYMSWVRQAPGKGLEWVSGIYYGNGIPYYADSVKDRFTISRDNSKNTLYLQMNSLRAEDTAVYYCARDTPGFDYWGQGTLVTVSS VL: QSVLTQPPSASGTPGQRVTISCTGSSSNIGNNAVNWYQQLPGTAPKLLIYYDMFRPGGVPDRFSGSKSGTSASLAISGLRSEDEADYYCGAWDYSLSAYVFGGGTKLTVLG
0.0518
